Kd values by entry
# TARGET_OR_TEST_SYSTEM: T1, Cyno CD47 ECD protein, His-tagged, monomer (cyno)
# T1 construct: extracellular domain; also called cynomolgus CD47
# ASSAY_PROCEDURE: ProteOn SPR; mAb captured, ECD monomer as analyte

BINDER	Kd, nM
C47B157 (human IgG2sigma) (antibody, V domains shown, HFA variant of C47B116; human IgG2sigma/kappa; also called IgG2 Fc-silent C47B157) VH: QVQLVQSGAEVKKPGASVKVSCKASGYTFTDYNMHWVRQAPGQGLEWMGDIYPYNGGTGYNQKFKGRVTMTRDTSTSTVYMELSSLRSEDTAVYYCARGGWHAMDSWGQGTLVTVSS VL: DIVMTQSPLSLPVTPGEPASISCRSRQSIVHTNRYTYLAWYLQKPGQSPQLLIYKVSNRFSGVPDRFSGSGSGTDFTLKISRVEAEDVGVYYCFQGSHVPYTFGGGTKLEIK	3.71
C47B147 (antibody, V domains shown, HFA variant of C47B116; human IgG2sigma/kappa) VH: EVQLVQSGAEVKKPGESLKISCKGSGYTFTDYNMHWVRQMPGKGLEWMGDIYPYNGGTGYNQKFKGQVTISADKSISTAYLQWSSLKASDTAMYYCARGGWHAMDSWGQGTLVTVSS VL: DIVMTQSPDSLAVSLGERATINCRSRQSIVHTNRYTYLAWYQQKPGQPPKLLIYKVSNRFSGVPDRFSGSGSGTDFTLTISSLQAEDVAVYYCFQGSHVPYTFGGGTKLEIK	13.5
C47B116 (antibody, human IgG2, V domains shown, hybridoma-derived, chimeric human IgG2 Fc-silent/human kappa; also called parent hybridoma mAb C47B116) VH: EVQLQQSGPELVKPGASVKISCKASGYTFTDYNMHWVKQSHGKSLEWIGDIYPYNGGTGYNQKFKSKATLTVDNSSSTAYMELRSLTSEDSAVYYCARGGWHAMDSWGQGTSVTVSS VL: DVVMTQTPLSLPVSLGDQASISCRSRQSIVHTNRYTYLAWYLQKPGQSPKLLIYKVSNRFSGVPDRFSGSGSGTDFTLKISRVEAEDLGVYYCFQGSHVPYTFGGGTKLEIK	0.95
C47B151 (antibody, V domains shown, HFA variant of C47B116; human IgG2sigma/kappa) VH: QVQLVQSGAEVKKPGSSVKVSCKASGYTFTDYNMHWVRQAPGQGLEWMGDIYPYNGGTGYNQKFKGRVTITADESTSTAYMELSSLRSEDTAVYYCARGGWHAMDSWGQGTLVTVSS VL: DIVMTQSPDSLAVSLGERATINCRSRQSIVHTNRYTYLAWYQQKPGQPPKLLIYKVSNRFSGVPDRFSGSGSGTDFTLTISSLQAEDVAVYYCFQGSHVPYTFGGGTKLEIK	9.34
C47B161 (human IgG2sigma) (antibody, V domains shown, HFA variant of C47B116; human IgG2sigma/kappa; also called IgG2 Fc-silent C47B161) VH: QVQLVQSGAEVKKPGASVKVSCKASGYTFTDYNMHWVRQAPGQRLEWMGDIYPYNGGTGYNQKFKGRVTITRDTSASTAYMELSSLRSEDTAVYYCARGGWHAMDSWGQGTLVTVSS VL: DIVMTQSPLSLPVTPGEPASISCRSRQSIVHTNRYTYLAWYLQKPGQSPQLLIYKVSNRFSGVPDRFSGSGSGTDFTLKISRVEAEDVGVYYCFQGSHVPYTFGGGTKLEIK	2.96

Hey, just so you know, these numbers are from patent US20180250395A1.
